Molecular target: MtbAPSR (Mycobacterium tuberculosis, UniProt P9WIK3)
Sequence (P9WIK3 whole entry): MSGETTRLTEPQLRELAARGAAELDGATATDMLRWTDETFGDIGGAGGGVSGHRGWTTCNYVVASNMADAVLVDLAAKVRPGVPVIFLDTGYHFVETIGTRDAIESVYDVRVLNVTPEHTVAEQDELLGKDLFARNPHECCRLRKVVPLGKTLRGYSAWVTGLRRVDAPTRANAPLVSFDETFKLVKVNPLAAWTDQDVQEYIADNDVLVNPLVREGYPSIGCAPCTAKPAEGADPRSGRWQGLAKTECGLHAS
Experiment: biochemical
Set-up: species or system M. tuberculosis
Details: LUM Assay; IC50, dose-response LUM assay, Table 1
pIC50: −log10 of the molar value.

smiles.record: Cc1c2ccncc2c(C)c2c1[nH]c1ccccc12
assayed.target: MtbAPSR (Mycobacterium tuberculosis, UniProt P9WIK3)
pIC50: 5.38

###

Target: MtbAPSR (Mycobacterium tuberculosis)
Test: biochemical
Design: species or system M. tuberculosis
Settings: apparent IC50 in LUM assay, LOPAC pilot screen hit, dose-response, 384-well
measure: IC50 (µM)

smiles.record: Cc1c2ccncc2c(C)c2c1[nH]c1ccccc12
measure: IC50
meas.value: 11.1

###

Target: MtbAPSR (Mycobacterium tuberculosis, UniProt P9WIK3)
measure: Kd (µM)

smiles.record: Cc1c2ccncc2c(C)c2c1[nH]c1ccccc12
measure: Kd
meas.value: 12
